# System: Staphylococcus aureus
# assaySummary: Antibacterial activity against quinolone-resistant Staphylococcus aureus CCARM 3519 clinical isolate after 24 hrs by broth microdilution method
# Format: functional
# conditionDetails: CCARM 3519, 24 h
metric: MIC (µg/mL)
Please give a number only; it is taken to be in µg/mL.

Check out these entries, answers already filled in.
compoundSmiles: O=C(O)[C@H](Cc1ccccc1)N1C(=O)/C(=C\c2ccc(OCc3cccc(Cl)c3)cc2)SC1=S
unitTag: µg/mL
readoutValue: 4

compoundSmiles: O=C(O)[C@H](Cc1ccccc1)N1C(=O)/C(=C\c2ccc(OCc3ccccc3Cl)cc2)SC1=S
unitTag: µg/mL
readoutValue: 4

compoundSmiles: COc1ccc(C(=O)/C=C/c2ccc(/C=C3\SC(=S)N([C@@H](Cc4ccccc4)C(=O)O)C3=O)cc2)cc1
unitTag: µg/mL
readoutValue: 4

compoundSmiles: Cc1ccc(C(=O)/C=C/c2ccc(/C=C3\SC(=S)N([C@@H](Cc4ccccc4)C(=O)O)C3=O)cc2)c(C)c1
unitTag: µg/mL
readoutValue: 8

compoundSmiles: O=C(/C=C/c1ccc(/C=C2\SC(=S)N([C@@H](Cc3ccccc3)C(=O)O)C2=O)cc1)c1ccc(Cl)cc1
unitTag: µg/mL
readoutValue: 4

compoundSmiles: O=C(/C=C/c1ccc(/C=C2\SC(=S)N([C@@H](Cc3ccccc3)C(=O)O)C2=O)cc1)c1cccc(Cl)c1
unitTag: µg/mL
readoutValue: 8

Turning now to a further record.
Lab note: measured MIC of `O=C(/C=C/c1ccc(/C=C2\SC(=S)N([C@@H](Cc3ccccc3)C(=O)O)C2=O)cc1)c1ccc(F)cc1` was 8
